# Test system: DU-145 prostate
# Measurement notes: NCI tumour cell line growth inhibition, 48 h
Readout name: TGI (µM)

- CN(C)CCC(=O)N1C/C(=C/c2ccccc2)C(=O)/C(=C\c2ccccc2)C1: 18.5
- Cc1nnc2n1N=C(c1cc(F)c(Cl)cc1Cl)/C(=C/c1ccc(Cl)cc1)S2: 48.6
- COc1cc(/C=C/c2cc(/C=C/c3ccc(O)c(OC)c3)n(-c3ccccc3)n2)ccc1O: 1.4
- O=C(Nc1ccc(N2CCNCC2)cc1)c1[nH]ncc1Nc1cc(Oc2ccccc2)ncn1: 11.2

* * *

Reported GI50 is given for each of the following compounds.
# Test system: SF-268 CNS
# Measurement notes: NCI tumour cell line growth inhibition, 48 h
Readout name: GI50

• CC(C)CC(=O)[O-].CC(C)CC(=O)[O-].N.N.N.N.[Co+3].[O-][Cl+3]([O-])([O-])[O-] = > 100 µM
• CCOC(=O)/C=C(/C(=O)OCC)n1cc(Cl)c(=O)n(CC(=O)OCC)c1=O = 24 µM
• CSc1ccc(C2=NN(C(C)=O)C(c3cc(C)cs3)C2)cc1 (centres undefined) = 35.6 µM
• O=C(Nc1ccc(N2CCNCC2)cc1)c1[nH]ncc1Nc1cc(Oc2ccccc2)ncn1 = 3.57 µM
• COc1cc2c3c(n(C)c(=O)c2cc1OC)-c1cc2c(cc1/C3=C\CCCN1C(=O)c3ccccc3C1=O)OCO2 = 14.2 µM
• Cc1ccc2c(c1)C(=O)/C(=C/c1ncc([N+](=O)[O-])n1C)O2 = 1.93 µM
• COc1ccc2[nH]c(O)c(/C=c3/cc4c(c(-c5cc(OC)c(OC)c(OC)c5)n3)=Nc3ccccc3-4)c2c1 = 46.4 µM
• CN(C)CCNc1cc(-c2ccccc2)nc2ccccc12 = 4.98 µM
• COc1ccc(/C(=C2\O[C@@H]([C@H]3COC(C)(C)O3)[C@H]3OC(C)(C)O[C@@H]23)c2cc(OC)c(OC)c(OC)c2)cc1O = 6.95 µM

* * *

# System: EKVX NSCLC
# Measurement notes: NCI tumour cell line growth inhibition, 48 h
Readout name: TGI (µM)

• O=C1c2c(c3c4ccccc4n(CCCCCCBr)c3c3[nH]c4ccccc4c23)C(=O)N1O = 9.57
• CCCCCCCCCC[C@@H](O)[C@@H]1CC[C@H]([C@H]2CC[C@@H]([C@@H](O)CCCCCCCCCC[C@H]3CC(CC(C)=O)C(=O)O3)O2)O1 (stereo not given in full) = 78
• Cc1cc(N(CCOS(C)(=O)=O)CCOS(C)(=O)=O)ccc1C=Nc1ccc(-c2nc(Cc3ccccc3)sc2C)cc1 = 15.8
• CN(C)CCC(=O)N1C/C(=C/c2ccccc2)C(=O)/C(=C\c2ccccc2)C1 = 12.6
• CCCc1cc(=O)c2c(C)c3[nH]c4ccc(Cl)cc4c3c(C)c2[nH]1 = 7.72
• CCCCCCCCCCCC(=O)CC(=O)c1c(O)cccc1O = 33.4
• COCOC1/C=C/CCCC#C[C@H](C)C(=O)CC1 (stereo not given in full) = 23.1
• CC(C)(C)c1ccc2c(c1)CNCCNCc1cc(C(C)(C)C)ccc1OCC1(CO2)COc2ccc(C(C)(C)C)cc2CNCCNCc2cc(C(C)(C)C)ccc2OC1 = 2.42
• OCCCCCNc1c2ccccc2nc2ccccc12 = 17.5
• COc1ccc(-c2cc(-c3ccco3)c(C#N)c(=S)n2C2OC(COC(C)=O)C(OC(C)=O)C(OC(C)=O)C2OC(C)=O)cc1 (stereo not given) = 32.2
• COc1ccc(CNc2cc(OC)c(OC)c(OC)c2)cc1 = 98.9
• CCOC(=O)C1Cc2[nH]c3ccccc3c2C(C)C1C (stereo not given) = 31.2

* * *

# System: NCI-H522 lung
# Measurement notes: NCI tumour cell line growth inhibition, 48 h
Where a SMILES comes first, the peptide text is derived from it. The star is where a group is joined. Boc = CC(C)(C)OC(=O)*
Readout name: TGI (µM)

• COC(=O)CNC(=O)C(Cc1ccccc1)NC(=O)C(CCSC)NC(=O)C(Cc1ccc(O)cc1)NC(=O)OC(C)(C)C (stereo not drawn) (Boc-YMFG-OMe; configuration not given here) = 43
• Cc1c(C(=O)N/N=C/c2ccc(Cl)cc2)nnn1-c1ccnc2c(C(F)(F)F)cccc12 = 35.2
• CC(C)c1ccc2[nH]c(O)c(-c3[nH]c4ccccc4c3N=O)c2c1 = 14.6
• COc1ccc2cc1Oc1ccc(cc1)CC1c3cc(c(OC)cc3CCN1C)Oc1c3c(cc4c1C(C2)N(C)CC4)OCO3 (stereo not drawn) = 20.3

* * *

# Test system: SW-620 colon
# Measurement notes: NCI tumour cell line growth inhibition, 48 h; in the data active = GI50 below about 0.43 µM; inactive = the rest
Classes used: active, inactive

• CCc1c(Oc2ccc(C(C)=O)cc2)c2ccccc2[nH]c1=O = inactive
• CN1CCN(Cc2ccc(NC(=O)c3cncc(C#Cc4cnc(N)c5ccc(C#N)cc45)c3)cc2C(F)(F)F)CC1 = active
• CN(C)CCNc1cc(-c2ccccc2)nc2ccccc12 = inactive
• CCOc1cccc(/C=N/NC(=O)c2ccccc2Nc2ccnc(C(F)(F)F)c2)c1O = inactive
• CCNCCNc1cc(-c2ccc(C(=O)OC)cc2)c(C#N)c2nc3ccccc3n12 = inactive
• COc1ccc(C2=NN(C(=O)c3cc(OC)c(OC)c(OC)c3)C(c3ccc(C#N)cc3)C2)cc1OC (stereo not drawn) = inactive
• O=C1/C(=C/c2ccc(Cl)cc2Cl)N=C(c2ccccc2)N1Cc1ccco1 = inactive
• O=C(c1ccco1)c1nc2ccc(C(F)(F)F)cc2[n+]([O-])c1C(F)(F)F = inactive
• N#Cc1ccc(C#Cc2ccccc2C#CCCCCO)cc1 = inactive
• Cc1ccc(CS/C(=C\c2ccc([N+](=O)[O-])cc2)C(=O)c2ccc(F)cc2)cc1 = inactive
• CC1=C(C(=O)Nc2ccc3[nH]ncc3c2)C(c2ccc3ccccc3c2)CC(=O)N1 (stereo not drawn) = inactive
• Cc1ccc2c(c1)C(=O)/C(=C/c1ncc([N+](=O)[O-])n1C)O2 = active
• O=C(CN1CCOCC1)Nc1ccc(Cn2nnc3c2C(=O)c2nnn(Cc4ccc(NC(=O)CN5CCOCC5)cc4)c2C3=O)cc1 = active

* * *

Reported TGI is given for each of the following compounds.
# Tested on: SK-MEL-5 melanoma
# Measurement notes: NCI tumour cell line growth inhibition, 48 h
Readout name: TGI (µM)

• CC1=C(C(=O)Nc2ccc([N+](=O)[O-])cc2)C(c2ccc(N(C)C)cc2)C(C(=O)Nc2ccc([N+](=O)[O-])cc2)=C(C)N1 = 32.1
• CCN(CC)CCc1c2c(nc3ccccc13)C(=O)c1cccnc1C2=O = 1.34
• COc1ccc(-c2cc(-c3ccco3)c(C#N)c(=S)n2C2OC(COC(C)=O)C(OC(C)=O)C(OC(C)=O)C2OC(C)=O)cc1 (stereo not drawn) = 22.8
• Brc1ccc(CCNCCN2CCCCC2)cc1 = 20.6
• CC(C)Sc1nc(C#N)cc2c1CCCC2 = 33.2

* * *

# Tested on: NCI-H23 lung
# Measurement notes: NCI tumour cell line growth inhibition, 48 h
Readout name: TGI

- COCOC1/C=C/CCCCC2=C(C)C=C(C1)O2 (stereo not drawn): > 100 µM
- O=C(Nc1ccc(Br)cc1)c1c(-c2ccccc2)c2ccc(O)cc2oc1=O: > 10 µM
- CC(C)=CCOC(=O)C(C)=[N+]=[N-]: > 100 µM

* * *

Reported GI50 is given for each of the following compounds.
# System: PC-3 prostate
# Measurement notes: NCI tumour cell line growth inhibition, 48 h
Readout name: GI50

* Cc1ccc(CS/C(=C\c2ccc([N+](=O)[O-])cc2)C(=O)c2ccc(F)cc2)cc1 | 2.36 µM
* Cc1ccc(-c2c3c([nH]c(=O)c2C#N)-c2cc(F)ccc2OC3)cc1 | 88.7 µM
* C[C@]12CC[C@H](O)CC1=CC[C@@H]1[C@@H]2CC[C@]2(C)C(c3cccnc3)=CC[C@@H]12 | > 100 µM
* N#Cc1ccc(C#Cc2ccccc2C#CCCCCO)cc1 | 15.6 µM
* CN1CCN(Cc2ccc(NC(=O)c3cncc(C#Cc4cnc(N)c5ccc(C#N)cc45)c3)cc2C(F)(F)F)CC1 | 0.357 µM
* COc1ccc(/C(=C2\O[C@@H]([C@H]3COC(C)(C)O3)[C@H]3OC(C)(C)O[C@@H]23)c2cc(OC)c(OC)c(OC)c2)cc1O | 5.11 µM
* O=c1oc2ccc(F)cc2c(=O)n1-c1ccc(F)cc1F | 2.81 µM
* O=C1/C(=C/c2ccc(Br)cc2)C=C(c2ccccc2)N1CCc1ccccc1 | 1.2 µM
* CC1=C(C(=O)Nc2ccc3[nH]ncc3c2)C(c2ccc3ccccc3c2)CC(=O)N1 (centres undefined) | > 25 µM

* * *

Reported TGI is given for each of the following molecules.
# System: EKVX NSCLC
# Measurement notes: NCI tumour cell line growth inhibition, 48 h
Readout name: TGI (µM)

* O=C(NCCOCCOCCNc1cccc2c1C(=O)N(C1CCCNC1=O)C2=O)c1cc2c(o1)C(=O)c1ccccc1C2=O (centres undefined) | 10.1
* O=C(CN1CCOCC1)Nc1ccc(Cn2nnc3c2C(=O)c2nnn(Cc4ccc(NC(=O)CN5CCOCC5)cc4)c2C3=O)cc1 | 2.98
* Cc1ccc(CS/C(=C\c2ccc([N+](=O)[O-])cc2)C(=O)c2ccc(F)cc2)cc1 | 24
* O=C(N/N=C/c1ccccc1O)c1cccc([N+](=O)[O-])c1 | 82.8
